Source listed as paper PMC6309922.

# TARGET_OR_SYSTEM: LchARH3 (Latimeria chalumnae, UniProt H3BCW1)
# Construct: LchARH3 (GenBank: XP_005988572; aa residues 10-362); made in house; host or cells: E. coli Rosetta (DE3)
# Sequence (H3BCW1 10-356 limits assumed): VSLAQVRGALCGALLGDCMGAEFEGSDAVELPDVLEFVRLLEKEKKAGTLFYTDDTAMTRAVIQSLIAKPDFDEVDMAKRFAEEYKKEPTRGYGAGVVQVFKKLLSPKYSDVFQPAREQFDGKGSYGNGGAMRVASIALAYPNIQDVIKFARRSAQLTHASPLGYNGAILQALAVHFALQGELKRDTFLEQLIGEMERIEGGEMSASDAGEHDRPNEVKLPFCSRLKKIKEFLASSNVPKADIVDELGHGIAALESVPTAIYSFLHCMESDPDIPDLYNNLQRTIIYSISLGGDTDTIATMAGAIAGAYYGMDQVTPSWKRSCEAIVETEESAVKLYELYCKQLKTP
# EXPERIMENT: biochemical
# Assay type: binding
MEASUREMENT_LABEL: Kd (µM)
Answers are plain numbers, in µM.

Exercise: Return reported Kd; argument: [Mn+2] [MnCl2, Manganese(II) chloride tetrahydrate]
Solution: 175

---

# TARGET_OR_SYSTEM: hARH3 (Homo sapiens, UniProt Q9NX46)
# Construct: made in house; host or cells: E. coli Rosetta (DE3)
# EXPERIMENT: Differential scanning fluorimetry (DSF) with metal salts, MgII-depleted enzyme
# Type: binding
# PROTOCOL_CONDITIONS: DSF, 16 metal salt dilutions, single-site ligand-binding model; triplicate ± SD; read-out: Kd
Could you please report measured pKd for the items listed next?
Answers are plain numbers, as −log10 of the molar value.

Exercise: Return reported pKd; argument: [Ca+2] [CaCl2, Calcium chloride dehydrate]
Solution: 3.58

// next entry
Exercise: // lookup pKd for [Mg+2] [MgCl2, Magnesium chloride hexahydrate]
Solution: 2.27

---

# TARGET_OR_SYSTEM: hARH3 (Homo sapiens, UniProt Q9NX46)
# Construct: made in house; host or cells: E. coli Rosetta (DE3)
# Sequence (Q9NX46 1-363): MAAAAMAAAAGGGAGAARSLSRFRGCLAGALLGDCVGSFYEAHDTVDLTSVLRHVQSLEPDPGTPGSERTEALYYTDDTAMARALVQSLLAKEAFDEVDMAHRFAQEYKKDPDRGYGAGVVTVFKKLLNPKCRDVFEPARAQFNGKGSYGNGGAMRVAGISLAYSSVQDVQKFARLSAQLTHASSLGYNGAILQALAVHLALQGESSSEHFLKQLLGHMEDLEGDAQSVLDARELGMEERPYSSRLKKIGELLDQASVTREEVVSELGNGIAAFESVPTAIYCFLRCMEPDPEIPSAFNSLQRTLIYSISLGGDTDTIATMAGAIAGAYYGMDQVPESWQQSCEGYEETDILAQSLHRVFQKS
# EXPERIMENT: Differential scanning fluorimetry (DSF) with metal salts, MgII-depleted enzyme
# Assay type: binding
MEASUREMENT_LABEL: Kd (µM)
One number for each entry, in µM.

Exercise: Quick check: Kd of [Mn+2] [MnCl2, Manganese(II) chloride tetrahydrate] ?
Solution: 208

---

For each of the compounds below, state its TM.
# TARGET_OR_SYSTEM: hARH3 (Homo sapiens, UniProt Q9NX46)
# Construct: made in house; host or cells: E. coli Rosetta (DE3)
# EXPERIMENT: Differential scanning fluorimetry (DSF) with metal salts, MgII-depleted enzyme
# Assay type: binding
# PROTOCOL_CONDITIONS: 100 μM metal salt; n = 3
One number for each entry, in °C.

Exercise: Under hARH3 (Homo sapiens, UniProt Q9NX46): TM value of [Mn+2] [MnCl2, Manganese(II) chloride tetrahydrate] ?
Solution: 52.6

Exercise: Lab note: need TM for [Mg+2] [MgCl2, Magnesium chloride hexahydrate] on hARH3 (Homo sapiens, UniProt Q9NX46), anyone have it?
Solution: 46.7

Exercise: Reported TM for hARH3 (Homo sapiens, UniProt Q9NX46), given O.O.O.O.O.O.[Cl][Cr]([Cl])[Cl] [CrCl3, Chromium(III) chloride hexahydrate] ?
Solution: 46.5

Exercise: Quick check: TM on hARH3 (Homo sapiens, UniProt Q9NX46), item [Cl-].[Li+] [LiCl, Lithium chloride] ?
Solution: 46.6

# map each compound to its TM
1. [Ca+2] [CaCl2, Calcium chloride dehydrate]
2. [Cl-].[Cl-].[Zn+2] [ZnCl2, Zinc chloride]
3. [Cl][Cu][Cl] [CuCl2, Copper(II) chloride]
4. O.O.O.O.O.O.[Cl-].[Cl-].[Co+2] [CoCl2, Cobalt(II) chloride hexahydrate]

Solution:
[50.1, 44.1, 40.5, 46.7]

Exercise: Form field - read-out: TM; system: hARH3 (Homo sapiens, UniProt Q9NX46); submitted item: O.O.O.O.O.O.[Cl][Ni][Cl] [NiCl2, Nickel(II) chloride hexahydrate]
Solution: 46.4
